Recorded below: pIC50, system ITK (Homo sapiens).
pIC50: −log10 of the molar value.

| CHEMICAL STRING | READOUT VALUE |
| --- | --- |
| COc1ccc(F)cc1C(=O)NCc1ccc(-c2ncc(-c3cnn4cccnc34)c3[nH]nc(N)c23)cc1 | < 6.30 |
| COc1ccc(F)cc1C(=O)NCc1ccc(-c2ncc(-c3nc4ccccn4n3)c3[nH]nc(N)c23)cc1 | < 6.30 |
| COc1ccc(F)cc1C(=O)NCc1ccc(-c2ncc(-c3ccc(C(F)F)cn3)c3[nH]nc(N)c23)cc1 | 6.30 to 7.30 |
| COc1ccc(F)cc1C(=O)NCc1ccc(-c2ncc(-c3ccc(NC(=O)C4CC4)cn3)c3[nH]nc(N)c23)cc1 | < 6.30 |
| COc1ccc(F)cc1C(=O)NCc1ccc(-c2ncc(-c3ccc4c(n3)nc3n4CCOC3)c3[nH]nc(N)c23)cc1 | < 6.30 |

Form field: pIC50 recorded for COc1ccc(F)cc1C(=O)NCc1ccc(-c2ncc(-c3ccc(OC(F)(F)F)cn3)c3[nH]nc(N)c23)cc1 with ITK (Homo sapiens) (enter value) 6.30 to 7.30

Form field: pIC50 recorded for COc1ccc(F)cc1C(=O)NCc1ccc(-c2ncc(-c3ncc(F)cn3)c3[nH]nc(N)c23)cc1 with ITK (Homo sapiens) (enter value) < 6.30

Form field: pIC50 recorded for COc1ccc(F)cc1C(=O)NCc1ccc(-c2ncc(-c3ccncn3)c3[nH]nc(N)c23)cc1 with ITK (Homo sapiens) (enter value) < 6.30

* * *

The compounds listed here are annotated with their pIC50.
- System: Ramos cells with BTK WT
- ASSAY PROCEDURE: Phosphor-BTK(Y223) assay, suspended cells
- Type: cell-based
- RUN CONDITIONS: Homo sapiens, Ramos, phosphorylated BTK Y223, Ramos cells with BTK WT
pIC50: −log10 of the molar value.

The following compounds have reported results that may help.
| COMPOUND | pIC50 |
| --- | --- |
| COc1ccc(F)cc1C(=O)NCc1ccc(-c2nc(C3CCCN(C(=O)Nc4ccccc4)C3)cc3[nH]nc(N)c23)cc1 (stereo not shown) | 8.00 to 8.30 |
| COc1ccc(F)cc1C(=O)NCc1ccc(-c2nc(C(C)C(F)(F)F)c(-c3ccc(F)cn3)c3[nH]nc(N)c23)cc1 (stereo not shown) | < 7.30 |
| COc1ccc(F)cc1C(=O)NCc1ccc(-c2nc(C(C)C(F)(F)F)cc3[nH]nc(N)c23)cc1 (single isomer, unassigned) | 8.00 to 8.30 |

Recorded pIC50 for COc1ccc(F)cc1C(=O)NCc1ccc(-c2nc(C(C)C(F)(F)F)c(-c3ccccn3)c3[nH]nc(N)c23)cc1 (stereo not shown) , please? < 7.30

Recorded pIC50 for CCOC(=O)c1cnc2cc(-c3cnc(-c4ccc(CNC(=O)c5cc(F)ccc5OC)cc4)c4c(N)n[nH]c34)nn2c1 , please? < 7.30

Recorded pIC50 for COc1ccc(F)cc1C(=O)NCc1ccc(-c2ncc(-c3cn(C)cn3)c3[nH]nc(N)c23)cc1 , please? 7.30 to 8.00

Recorded pIC50 for COc1ccc(F)cc1C(=O)NCc1ccc(-c2ncc(-c3ccc(P(C)(C)=O)cn3)c3[nH]nc(N)c23)cc1 , please? ≥ 8.30

Recorded pIC50 for COc1ccc(F)cc1C(=O)NCc1ccc(-c2ncc(-c3cnn4cccnc34)c3[nH]nc(N)c23)cc1 , please? ≥ 8.30

* * *

Recorded below: IC50, system UniProt:P00533.
Sequence (P00533 669-1210 limits assumed): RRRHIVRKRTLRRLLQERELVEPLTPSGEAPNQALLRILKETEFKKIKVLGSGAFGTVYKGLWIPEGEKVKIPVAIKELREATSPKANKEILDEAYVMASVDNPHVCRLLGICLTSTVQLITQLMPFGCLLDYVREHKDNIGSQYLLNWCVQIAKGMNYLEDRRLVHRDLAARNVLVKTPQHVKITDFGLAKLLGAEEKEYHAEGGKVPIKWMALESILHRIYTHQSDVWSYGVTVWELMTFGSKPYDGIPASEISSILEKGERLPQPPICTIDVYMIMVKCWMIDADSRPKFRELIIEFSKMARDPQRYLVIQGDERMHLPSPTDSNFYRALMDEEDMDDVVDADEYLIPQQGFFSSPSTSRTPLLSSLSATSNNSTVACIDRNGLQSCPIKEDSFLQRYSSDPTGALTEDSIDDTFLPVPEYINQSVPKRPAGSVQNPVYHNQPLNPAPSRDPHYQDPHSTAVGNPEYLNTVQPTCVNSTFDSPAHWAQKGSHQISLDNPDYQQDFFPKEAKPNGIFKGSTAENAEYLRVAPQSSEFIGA

The following compounds have reported results that may help.
| COMPOUND | IC50 |
| --- | --- |
| COc1ccc(F)cc1C(=O)NCc1ccc(-c2ncc(-c3cnccn3)c3[nH]nc(N)c23)cc1 | > 500 nM |
| COc1ccc(F)cc1C(=O)NCc1ccc(-c2ncc(-c3ccc(N4CCN(C)C[C@@H]4C)cn3)c3[nH]nc(N)c23)cc1 | 5 to 50 nM |
| C=CC(=O)N1CCCC(c2cc3[nH]nc(N)c3c(-c3ccc(CNC(=O)c4cc(F)ccc4OC)cc3)n2)C1 (centres unmarked) | 50 to 500 nM |

Form field: IC50 recorded for COc1ccc(F)cc1C(=O)NCc1ccc(-c2ncc(-c3ccc(C4COC4)cn3)c3[nH]nc(N)c23)cc1 with UniProt:P00533 (enter value) 5 to 50 nM

Form field: IC50 recorded for COc1ccc(F)cc1C(=O)NCc1ccc(-c2ncc(-c3ccncc3)c3[nH]nc(N)c23)cc1 with UniProt:P00533 (enter value) > 500 nM

Form field: IC50 recorded for COc1ccc(F)cc1C(=O)NCc1ccc(-c2ncc(-c3ccc4c(n3)nc3n4C(C)COC3)c3[nH]nc(N)c23)cc1 (centres unmarked) with UniProt:P00533 (enter value) 50 to 500 nM

Form field: IC50 recorded for COc1ccc(F)cc1C(=O)NCc1ccc(-c2ncc(-c3cc4n(n3)CCN(C)C4)c3[nH]nc(N)c23)cc1 with UniProt:P00533 (enter value) 5 to 50 nM

Form field: IC50 recorded for COc1ccc(F)cc1C(=O)NCc1ccc(-c2ncc(-c3ccc(P(C)(C)=O)cn3)c3[nH]nc(N)c23)cc1 with UniProt:P00533 (enter value) 50 to 500 nM

Form field: IC50 recorded for COc1ccc(F)cc1C(=O)NCc1ccc(-c2ncc(-c3ccc(C)cn3)c3[nH]nc(N)c23)cc1 with UniProt:P00533 (enter value) 50 to 500 nM

Form field: IC50 recorded for CCOC(=O)c1cnc2cc(-c3cnc(-c4ccc(CNC(=O)c5cc(F)ccc5OC)cc4)c4c(N)n[nH]c34)nn2c1 with UniProt:P00533 (enter value) 50 to 500 nM

Form field: IC50 recorded for COc1ccc(F)cc1C(=O)NCc1ccc(-c2ncc(-c3ccc(CN4CCOCC4)cn3)c3[nH]nc(N)c23)cc1 with UniProt:P00533 (enter value) 5 to 50 nM

Form field: IC50 recorded for COc1ccc(F)cc1C(=O)NCc1ccc(-c2nc(C(C)C(F)(F)F)cc3[nH]nc(N)c23)cc1 (single isomer, unassigned) with UniProt:P00533 (enter value) > 500 nM

Form field: IC50 recorded for COc1ccc(F)cc1C(=O)NCc1ccc(-c2nc(C(C)C(F)(F)F)c(-c3ccn(C)n3)c3[nH]nc(N)c23)cc1 (centres unmarked) [Example 6] with UniProt:P00533 (enter value) 50 to 500 nM

Form field: IC50 recorded for COc1ccc(F)cc1C(=O)NCc1ccc(-c2ncc(-c3ccc(C(=O)N4C[C@H](C)O[C@@H](C)C4)cn3)c3[nH]nc(N)c23)cc1 with UniProt:P00533 (enter value) 50 to 500 nM

* * *

The compounds listed here are annotated with their IC50.
- System: Ramos cells with BTK WT
- ASSAY PROCEDURE: Phosphor-BTK(Y223) assay, suspended cells
- Format: cell-based
- RUN CONDITIONS: Homo sapiens, Ramos, phosphorylated BTK Y223, Ramos cells with BTK WT

The following compounds have reported results that may help.
| COMPOUND | MEASURE NAME | READOUT VALUE |
| --- | --- | --- |
| COc1ccc(F)cc1C(=O)NCc1ccc(-c2ncc(-c3nccn4cccc34)c3[nH]nc(N)c23)cc1 | IC50 | ≤ 5 nM |
| COc1ccc(F)cc1C(=O)NCc1ccc(-c2ncc(-c3ncn4ccccc34)c3[nH]nc(N)c23)cc1 | IC50 | ≤ 5 nM |
| COc1ccc(F)cc1C(=O)NCc1ccc(-c2nc(C(C)C(F)(F)F)c(-c3ccn(C)n3)c3[nH]nc(N)c23)cc1 (stereo not drawn) [Example 6] | IC50 | ≤ 5 nM |
| COc1ccc(F)cc1C(=O)NCc1ccc(-c2ncc(-c3ccn4nccc4n3)c3[nH]nc(N)c23)cc1 | IC50 | ≤ 5 nM |

Recorded IC50 for COc1ccc(F)cc1C(=O)NCc1ccc(-c2nccc3[nH]nc(N)c23)cc1 , please? > 50 nM

Recorded IC50 for COc1ccc(F)cc1C(=O)NCc1ccc(-c2nc(C(C)C(F)(F)F)c(Br)c3[nH]nc(N)c23)cc1 (stereo not drawn) , please? > 50 nM

Recorded IC50 for COc1ccc(F)cc1C(=O)NCc1ccc(-c2nc(C)c(-c3ncccn3)c3[nH]nc(N)c23)cc1 , please? 5 to 10 nM

Recorded IC50 for COc1ccc(F)cc1C(=O)NCc1ccc(-c2ncc(-c3nc4ccccn4n3)c3[nH]nc(N)c23)cc1 , please? ≤ 5 nM

Recorded IC50 for COc1ccc(F)cc1C(=O)NCc1ccc(-c2ncc(-c3cnn4ccncc34)c3[nH]nc(N)c23)cc1 , please? > 50 nM

* * *

The compounds listed here are annotated with their pIC50.
- Tested on: Ramos cells with BTK WT
- ASSAY PROCEDURE: Phosphor-BTK(Y223) assay, suspended cells
- Format: cell-based
- RUN CONDITIONS: Homo sapiens, Ramos, phosphorylated BTK Y223, Ramos cells with BTK WT
pIC50: −log10 of the molar value.

The following compounds have reported results that may help.
| COMPOUND | TARGET SYSTEM | READOUT VALUE |
| --- | --- | --- |
| COc1ccc(F)cc1C(=O)NCc1ccc(-c2ncc(-c3ccc(OC(F)(F)F)cn3)c3[nH]nc(N)c23)cc1 | Ramos cells with BTK WT | ≥ 8.30 |
| COc1ccc(F)cc1C(=O)NCc1ccc(-c2ncc(C(=O)NC3CC3)c3[nH]nc(N)c23)cc1 | Ramos cells with BTK WT | < 7.30 |
| COc1ccc(F)cc1C(=O)NCc1ccc(-c2ncc(-c3cnccn3)c3[nH]nc(N)c23)cc1 | Ramos cells with BTK WT | 7.30 to 8.00 |
| COc1ccc(F)cc1C(=O)NCc1ccc(-c2nc(C(C)C(F)(F)F)c(-c3cc(C)[nH]n3)c3[nH]nc(N)c23)cc1 (stereo not shown) | Ramos cells with BTK WT | 8.00 to 8.30 |
| COc1ccc(F)cc1C(=O)NCc1ccc(-c2ncc(-c3ccc(Cl)cn3)c3[nH]nc(N)c23)cc1 | Ramos cells with BTK WT | ≥ 8.30 |

Recorded pIC50 for COc1ccc(F)cc1C(=O)NCc1ccc(-c2ncc(-c3ccc(F)cn3)c3[nH]nc(N)c23)c(F)c1 , please? 7.30 to 8.00

Recorded pIC50 for COc1ccc(F)cc1C(=O)NCc1ccc(-c2ncc(-c3ccc(CN4CCCCC4)cn3)c3[nH]nc(N)c23)cc1 , please? 8.00 to 8.30
